- System: A549 NSCLC
- assay-explanation: NCI tumour cell line growth inhibition, 48 h
endpoint-name: TGI

Answered cases to consult:
In plain terms, O=C(NCCCN(CCCCN(CCCNC(=O)C(F)(F)F)CCCc1ccccc1)CCCc1ccccc1)C(F)(F)F has a documented TGI of 3.73 µM

In plain terms, Oc1ccc(-c2nc(-c3ccc(F)cc3)c(-c3ccc4ccccc4n3)[nH]2)cc1 has a documented TGI of 27 µM

In plain terms, COC(=O)C1(OC(=O)Sc2ccccc2)CCN(C)CC1 has a documented TGI of > 100 µM

Continuing:
In plain terms, CC(C)(C)NC(=O)N1N=C(c2ccccc2)C1c1ccccc1 (configuration not stated) has a documented TGI of > 100 µM

In plain terms, COc1ccc(OC)c(C2Cc3cnc4nc(N)nc(N)c4c3C2)c1 (configuration not stated) has a documented TGI of > 100 µM

In plain terms, CCCNC(=S)/N=C/c1c(O)c2ccccc2[nH]c1=O has a documented TGI of > 100 µM

In plain terms, O=C(N/N=C1/C(=O)N(c2ccc(Cl)cc2Cl)C(=O)C(=O)C1c1nc2ccccc2o1)c1ccccc1O (configuration not stated) has a documented TGI of > 100 µM

###

- System: KM12 colon
- assay-explanation: NCI tumour cell line growth inhibition, 48 h
endpoint-name: TGI

Answered cases to consult:
In plain terms, CC[C@]1(Cc2ccc(OC)c(OC)c2)[C@@H]2C[C@@H](C3OCCO3)ON2O[C@H](OC2CCCC2(c2ccccc2)c2ccccc2)[C@@H]1OC(C)=O (stereo not given in full) has a documented TGI of 29.5 µM

In plain terms, O=C(/C=C/C=C/c1ccccc1)c1ccc2c(c1)CCCC2 has a documented TGI of > 100 µM

Continuing:
In plain terms, CCSc1[nH]c(Nc2nc(-c3ccccc3)n(-c3ccccc3)n2)c(C(N)=O)c1C(N)=O has a documented TGI of > 10 µM

In plain terms, S=c1[nH]n2c(COc3cccc(OCc4nnc5sc(=S)[nH]n45)c3)nnc2s1 has a documented TGI of > 100 µM

In plain terms, Cc1cccc(C(C)C)c1NC(=O)CC1Sc2ccccc2NC1=O (stereo not given) has a documented TGI of > 100 µM

In plain terms, COc1ccc(C(OCC2OC(n3cc(C)c(=O)[nH]c3=O)CC2n2cc(Cn3cc(Br)c(=O)[nH]c3=O)nn2)(c2ccccc2)c2ccccc2)cc1 (stereo not given) has a documented TGI of > 100 µM

In plain terms, Nc1c(C(=O)Nc2cccc(Br)c2)sc2nc3c(cc12)C(=O)CCC3 has a documented TGI of > 100 µM

In plain terms, Cc1nc2ccccc2nc1-c1ccc(N=[N+]([O-])c2ccc(-c3nc4ccccc4nc3C)cc2)cc1 has a documented TGI of > 100 µM

In plain terms, CCOc1ccc2nc(S/C(=C/C=C(C#N)C#N)c3ccc(C)cc3)sc2c1 has a documented TGI of > 100 µM

In plain terms, COc1cccc2c1C(=O)c1c(O)c3c(c(O)c1C2=O)C[C@@](O)(C(=O)CO)C[C@@H]3OC1CC(N)C(OC)C(C)O1 (stereo not given in full) has a documented TGI of 0.931 µM

###

These records show GI50 for U251 CNS.

Answered cases to consult:
U251 CNS data for C=CCc1cccc(/C=N/NC(=O)CN2CCN(Cc3ccccc3)CC2)c1O ; its GI50: 2.13 µM

U251 CNS data for O=c1[nH]c(=O)n(C2CC(O)C(CO)O2)cc1CO (stereo unspecified) ; its GI50: 2.95 µM

U251 CNS data for COc1ccncc1C#Cc1cncc(C(=O)Nc2ccc(CN3CCN(C)CC3)c(C(F)(F)F)c2)c1 ; its GI50: 35.6 µM

U251 CNS data for COc1ccc2[nH]cc(-c3nc(-c4c[nH]c5ncccc45)cs3)c2c1 ; its GI50: 3.83 µM

U251 CNS data for Cn1cnc([N+](=O)[O-])c1S(=O)(=O)Oc1ccccc1 ; its GI50: 23.5 µM

Continuing:
U251 CNS data for COC12C=C/C(=C(/C(=O)OCc3ccncc3)C(=O)CCCCCCCCC3(OC)C=C/C(=C(/C(=O)OCc4ccncc4)C(=O)CCCCCCCC1)O3)O2 ; its GI50: 0.5 µM

###

Overview of reported TGI across a group of compounds:
- Test system: MOLT-4 leukemia
- assay-explanation: NCI tumour cell line growth inhibition, 48 h

In plain terms, Cc1c(O)c(C)c2c(C)cn(C(=O)C(C)(C)C)c2c1C has a documented TGI of 55.2 µM

In plain terms, CCOP(=O)(O)C(C)(C)NC has a documented TGI of > 100 µM

In plain terms, Cc1cc(OCc2nnc3n2N=C(c2cc(F)c(Cl)cc2Cl)/C(=C/c2ccc(Cl)cc2)S3)ccc1Cl has a documented TGI of 19.8 µM

In plain terms, CN(C)/C=N/n1c2ccccc2c2ccccc21 has a documented TGI of > 100 µM

In plain terms, CCCCn1c(C)c2c(c1C)C(=O)N(CC(O)CN1CCc3ccccc3C1)C2=O (configuration not stated) has a documented TGI of > 100 µM

In plain terms, CS(=O)(=O)CCCn1c(=O)c(Oc2ccc(F)cc2F)cc2cnc(NC3CCOCC3)nc21 has a documented TGI of > 25 µM

In plain terms, Cn1c(N)c2c3c(sc2nc1=O)CCCC3 has a documented TGI of > 75 µM

In plain terms, CC(/C=N\NC(=S)N1CCCCC1)=N/NC(=S)N1CCCCC1 has a documented TGI of > 100 µM

In plain terms, N#CC1(C#N)C2CCCCC23OC(=N)C1(C#N)C(c1ccccc1)O3 (configuration not stated) has a documented TGI of > 100 µM

In plain terms, CN(CCN(C)C(=S)NN)C(=S)NN has a documented TGI of > 100 µM

In plain terms, Cc1ccc(Cn2c(C)nc3c2C(=O)c2ccccc2C3=O)cc1 has a documented TGI of > 100 µM

In plain terms, O=C(Nc1cc(Cl)ccc1Cl)c1cc2cccc(Cl)c2oc1=O has a documented TGI of > 100 µM

###

Overview of reported log10 TGI across a group of compounds:
- Tested on: COLO 205 colon
- assay-explanation: NCI tumour cell line growth inhibition, 48 h
Lab note - TGI converted to log10 from values in µM.

In plain terms, CC1=CC(=O)[C@@H](O)[C@]2(C)[C@H]3[C@@]4(O)OC[C@]35[C@H]([C@@H](C)[C@H]4O)[C@@H](O)C(=O)O[C@@H]5C[C@@H]12 has a documented log10 TGI of 0.39

In plain terms, CC#C[P+](c1ccccc1)(c1ccccc1)c1ccccc1 has a documented log10 TGI of 0.44

In plain terms, Nc1nccc2c1ccn2-c1ccc(NC(=O)c2ccc(N3CCOCC3)c(C(F)(F)F)c2)cc1 has a documented log10 TGI of -0.06

In plain terms, CCOC(=O)C(=Cc1cccc(Cl)c1)C(=O)OCC has a documented log10 TGI of 0.65

In plain terms, COc1ccc(-c2nc(SCC(=O)N/N=C/c3ccc(O)c(OC)c3)[nH]c2-c2ccc(OC)cc2)cc1 has a documented log10 TGI of 1.54

In plain terms, Cn1cc(C2=C(c3cn(C)c4cc(C(N)=O)ccc34)C(=O)NC2=O)c2ccccc21 has a documented log10 TGI of 0.78

In plain terms, CC1(C)OC(=C(C#N)C#N)C(C#N)=C1/C=C/c1ccncc1 has a documented log10 TGI of 0.51

Next item in the queue.
In plain terms, COc1cccc2c1C(=O)c1c(O)c3c(c(O)c1C2=O)CC(O)(/C(C)=N/NC(=O)CCC(=O)N/N=C(\C)C1(O)Cc2c(O)c4c(c(O)c2C(OC2CC(N)C(O)C(C)O2)C1)C(=O)c1c(OC)cccc1C4=O)CC3OC1CC(N)C(O)C(C)O1 (centres undefined) has a documented log10 TGI of -0.10

###

- System: DU-145 prostate
- assay-explanation: NCI tumour cell line growth inhibition, 48 h; in the data active means GI50 below about 0.43 µM; inactive means the rest
Form entry, call: pick from active, inactive

See these solved cases before continuing.
// param item: CC(C)=CCc1cc(O)cc2c1OC(C=C(C)C)C1=C2C(=O)C2=C(NCCS2(=O)=O)C1=O (stereo not drawn) ; yields the recorded call inactive

// param item: C=CCc1cccc(/C=N/NC(=O)CN2CCN(Cc3ccccc3)CC2)c1O ; yields the recorded call inactive

// param item: NS(=O)(=O)c1ccc(N(/C=C/C(=O)C(F)(F)F)CC(=O)c2ccc(Cl)cc2)cc1 ; yields the recorded call inactive

// param item: CCN(CC)c1nc(-c2ccc(Cl)cc2Cl)nc2ccccc12 ; yields the recorded call inactive

// param item: Cc1ccc(Cl)cc1Nc1nc(C(F)(F)F)ccc1C(=O)N1CCN(c2cccc(Cl)c2)CC1 ; yields the recorded call inactive

// param item: COc1cccc2c1C(=O)c1c(O)c3c(c(O)c1C2=O)CC(O)(/C(C)=N/NC(=O)CCC(=O)N/N=C(\C)C1(O)Cc2c(O)c4c(c(O)c2C(OC2CC(N)C(O)C(C)O2)C1)C(=O)c1c(OC)cccc1C4=O)CC3OC1CC(N)C(O)C(C)O1 (stereo not drawn) ; yields the recorded call active

// param item: CCN(CC)CCOc1ccc(/C=C2\CC3C4CC=C5C[C@@H](O)CC[C@]5(C)C4CC[C@]3(C)C2=O)cc1OC (stereo partly drawn) ; yields the recorded call inactive

// param item: COc1ccc2[nH]cc(-c3nc(-c4c[nH]c5ncccc45)cs3)c2c1 ; yields the recorded call inactive

With those in mind, consider the next compound.
// param item: C=CC(=O)N1CCC(C2CCNc3c(C(N)=O)c(-c4ccc(Oc5ccccc5)cc4)nn32)CC1 (stereo not drawn) ; yields the recorded call inactive
